Known purity by HPLC, Time (month) 0 of a selection of compounds
EXPERIMENTAL_DETAILS: Stability test: storage in nitrogen-filled sealed bottles, purity test by HPLC every month
Format: physicochemical
ASSAY_SETUP: Table 2, 2° C. to 8° C., initial sample (0 month)

{"columns": ["COMPOUND", "purity by HPLC, Time (month) 0"],
 "data": [
  ["NC(=O)c1ccc[n+]([C@@H]2O[C@H](CO)[C@@H](O)[C@H]2O)c1.O=C(O)C[C@H](O)C(=O)O.O=C([O-])C[C@H](O)C(=O)O [Example 4, malate of NR (1:2)]", 98.818],
  ["NC(=O)c1ccc[n+]([C@@H]2O[C@H](CO)[C@@H](O)[C@H]2O)c1.O=C(O)CC(O)(CC(=O)O)C(=O)O.O=C(O)CC(O)(CC(=O)O)C(=O)[O-] [Example 2, citrate of NR (1:2)]", 98.471],
  ["NC(=O)c1ccc[n+]([C@@H]2O[C@H](CO)[C@@H](O)[C@H]2O)c1.O=C([O-])C[C@H](O)C(=O)O [Example 3, malate of NR (1:1)]", 98.573],
  ["NC(=O)c1ccc[n+]([C@@H]2O[C@H](CO)[C@@H](O)[C@H]2O)c1.O=C(O)CC(O)(CC(=O)O)C(=O)[O-] [Example 1, citrate of NR (1:1)]", 98.930],
  ["NC(=O)c1ccc[n+]([C@@H]2O[C@H](CO)[C@@H](O)[C@H]2O)c1.[Cl-] [Comparative Example, chlorine salt of NR, reference compound]", 98.525]
]}
